# study system: KiSS-1 receptor (Homo sapiens)
# experiment description: Human kisspeptin (KISS1R) small molecule agonists, calcium flux assay in KISS1R-HEK293 cells (AID 1920064); further: on the % scale 0 is the no-effect control and ±100 the full control effect
# condition summary: KISS1R-HEK293, calcium flux fluorescence, agonist; series mostly up to 76.8 µM
# Excerpt: National Center for Advancing Translational Sciences [NCATS] Division of Preclinical Innovation [DPI] U.S. Environmental Protection Agency [EPA] National Institutes of Environmental Health Sciences [NIEHS] National Toxicology Program [NTP] U.S. Food and Drug Administration [FDA] […] KISS1R-HEK293 cells developed by Codex Corp contain human KISS1R gene, which was stably integrated into HEK 293 cells. The compound activation can be detected by fluorescence intensity via calcium flux assay. […]
The source made the active and inactive calls. The call rests on the fitted dose curve; in most records, active means well fitted activation curve with a large enough effect in the repeat runs; inconclusive means weak or mixed curves; inactive means flat fitted curve, though single readings scatter.
quantity measured: activation

Would you please look over these solved cases?
# molecule, activation
data = [
    ("O=C1[C@H]2CCCC[C@H]2C(=O)N1CCCCN1CCN(c2nsc3ccccc23)CC1", "inactive"),
    ("Cc1ccc2c(c1[N+](=O)[O-])C(=O)c1ccccc1C2=O", "inactive"),
    ("CCCC(=O)C(CC)Sc1ccoc1C (stereo unspecified)", "inactive"),
    ("OCCSc1ccccc1", "inactive"),
    ("CCN[C@@H]1C[C@H](N)[C@@H](OC2OC(CN)=CCC2N)[C@H](O)[C@H]1O[C@H]1OC[C@](C)(O)[C@H](NC)[C@H]1O (stereo partly specified)", "-0.712% [at 0.29 µM] (inactive)"),
]

With those in mind, consider the next molecule.
Input line: Fill in reported activation for this entry: O=S(O)(O)=S
Output line: -0.115% [at 6.97 µM] (inactive)
